System: MOLM-13
Experiment: Cytotoxicity against human MOLM13 cells harboring MLL-AF9 fusion protein assessed as cell growth inhibition after 7 days by WST8 assay
Type: functional, cell-based
Details: MOLM-13, 168 h
observable: pIC50
Just so you know, pIC50 here is -log10 of the concentration in molar units; reply with that number alone.

### Prompt Entry `CC[C@@H]1NC(=O)[C@H](CCCNC(=N)NC)NC(=O)[C@](C)(NC(=O)C(C)C)CCNC(=O)[C@@H](c2ccccc2)NC1=O.O=C(O)C(F)(F)F` : reported pIC50 = ?
### Response 7.00

* * *

Target: MLL1-ASH2L/RbBP5/WDR5/DPY30 (Homo sapiens, UniProt P61964)
Test: Inhibition of human N-terminal GST-tagged MLL1 (3735 to 3973 residues) interaction with human full length N-terminal 6xHis-tagged ASH2L/N-terminal 6xHis-tagged human full length RbBP5/human N-terminal 6xHis-tagged WDR5/human full length N-terminal 6xHis-tagged DPY30 assessed as decrease in H3K4me1-2 methylation preincubated for 30 mins followed by SAM/nucleosome mixture addition measured after 120 mins in absence of light by AlphaLISA assay
Bridge positions count the residues as written; N and C are the ends. Square brackets hold non-standard residues; d marks the D form. Peptide text beside a SMILES is read from it. * marks the point of attachment. Arg(Me) = CNC(=N)NCCC[C@H](N)C(=O)O; d(αMeK) = C[C@@](N)(CCCCN)C(=O)O; dPhg = N[C@@H](C(=O)O)c1ccccc1; Isobutyryl = CC(C)C(=O)*; Abu = CC[C@H](N)C(=O)O
observable: pIC50
Just so you know, pIC50 here is -log10 of the concentration in molar units; reply with that number alone.

These solved cases illustrate the format of a correct answer.
[[record]]
compound = "CC[C@@H]1NC(=O)[C@H](CCCNC(=N)NC)NC(=O)[C@](C)(NC(=O)C(C)C)CCCCNC(=O)[C@@H](c2ccccc2)NC1=O (Isobutyryl-[d(αMeK)][Arg(Me)][Abu][dPhg]; lactam 1-C)"
target_desc = "MLL1-ASH2L/RbBP5/WDR5/DPY30 (Homo sapiens, UniProt P61964)"
value_observed = 6.34

[[record]]
compound = "CC[C@@H]1NC(=O)[C@H](CCCNC(=N)NC)NC(=O)[C@](C)(NC(=O)C(C)C)CCNC(=O)[C@@H](c2ccccc2)NC1=O.O=C(O)C(F)(F)F"
target_desc = "MLL1-ASH2L/RbBP5/WDR5/DPY30 (Homo sapiens, UniProt P61964)"
value_observed = 7.90


Lab note: next compound to report on.
### Prompt Entry `CC[C@@H]1NC(=O)[C@H](CCCNC(=N)N)NC(=O)[C@](C)(NC(=O)C(C)C)CCCCN(C)C(=O)[C@@H](c2ccc(F)cc2)NC1=O.O=C(O)C(F)(F)F` : reported pIC50 = ?
### Response 6.86

* * *

Assay: Inhibition of 5-FAM tracer binding to WDR5 delta23 mutant (24 to 334 residues) (unknown origin) expressed in Escherichia coli Rosetta 2 (DE3) cells after 3 hrs by fluorescence polarization assay
Design: species or system Homo sapiens
observable: pIC50
Just so you know, pIC50 here is -log10 of the concentration in molar units; reply with that number alone.

These solved cases illustrate the format of a correct answer.
[[record]]
chemical_string = "CC[C@@H]1NC(=O)[C@H](CCCNC(=N)N)NC(=O)[C@](C)(NC(=O)C(C)C)CCCNC(=O)[C@@H](c2ccccc2)NC1=O.O=C(O)C(F)(F)F"
value_observed = 9.01

[[record]]
chemical_string = "CC[C@@H]1NC(=O)[C@H](CCCNC(=N)NC)NC(=O)[C@](C)(NC(=O)C(C)C)CCNC(=O)[C@@H](c2ccccc2)NC1=O.O=C(O)C(F)(F)F"
value_observed = 9.05

[[record]]
chemical_string = "CC[C@@H]1NC(=O)[C@H](CCCNC(=N)NC)NC(=O)[C@](C)(NC(=O)C(C)C)CCNC(=O)[C@H](c2ccccc2)NC1=O"
value_observed = 8.70

[[record]]
chemical_string = "CC[C@@H]1NC(=O)[C@H](CCCNC(=N)N)NC(=O)[C@](C)(NC(=O)C(C)C)CCCCN(C)C(=O)[C@@H](c2ccc(Cl)cc2)NC1=O.O=C(O)C(F)(F)F"
value_observed = 8.82

[[record]]
chemical_string = "CC[C@@H]1NC(=O)[C@H](CCCNC(=N)N)NC(=O)[C@](C)(NC(=O)C(C)C)CCNC(=O)[C@@H](c2ccccc2)NC1=O.O=C(O)C(F)(F)F"
value_observed = 8.97


Lab note: next compound to report on.
### Prompt Entry `CC[C@@H]1NC(=O)[C@H](CCCNC(=N)N)NC(=O)[C@](C)(NC(=O)C(C)C)CCCCN(C)C(=O)[C@@H](c2ccccc2)NC1=O.O=C(O)C(F)(F)F` : reported pIC50 = ?
### Response 8.80
